# method: Plasma pharmacokinetics of Z-endoxifen (HPLC assay, non-compartmental analysis)
# Format: in vivo, human
# protocol conditions: human, plasma, po, 360 mg, DL8 360 mg oral, day 1, mean (excluding patients 35 and 36); read-out: AUC(0-24h), Mean
quantity: AUC(0-t)
In your response, put the unit directly after the numeric value.

Inquiry: Recorded AUC(0-t) for CC/C(=C(\c1ccc(O)cc1)c1ccc(OCCNC)cc1)c1ccccc1 [Z-endoxifen] , please?
Reply text: 20500 ng·h/mL

----------
# method: Plasma pharmacokinetics of Z-endoxifen (HPLC assay, non-compartmental analysis)
# Format: in vivo, human
# protocol conditions: human, plasma, po, 40 mg, DL2 40 mg oral, day 1, mean; read-out: AUC(0-24h), Mean
# Experimental: This was an open-label trial of Z-endoxifen in patients with advanced solid tumors (https://clinicaltrials.gov/ identifier: NCT01273168). […] Plasma and urine concentrations of Z- and E-endoxifen were measured using a validated, post-column fluorescence derivatization HPLC assay. Non-compartmental pharmacokinetic parameters were calculated using WinNonlin version 7.0 (Pharsight Corp., Mountainview, CA, USA). […] The amount of Z-endoxifen excreted in urine was measured over a 24-hour collection period.
quantity: AUC(0-t) (ng·h/mL)
Could you give me the number in ng·h/mL? Just the number is fine.

Inquiry: Recorded AUC(0-t) for CC/C(=C(\c1ccc(O)cc1)c1ccc(OCCNC)cc1)c1ccccc1 [Z-endoxifen] , please?
Reply text: 1650

----------
# method: Plasma pharmacokinetics of Z-endoxifen (HPLC assay, non-compartmental analysis)
# Type: in vivo, human
# protocol conditions: human, plasma, po, 20 mg, DL1 20 mg oral, day 1, individual patients; read-out: C24h
quantity: concentration at 24 h
In your response, put the unit directly after the numeric value.

Inquiry: Recorded concentration at 24 h for CC/C(=C(\c1ccc(O)cc1)c1ccc(OCCNC)cc1)c1ccccc1 [Z-endoxifen] , please?
Reply text: 25.2 ng/mL

----------
# method: Plasma pharmacokinetics of Z-endoxifen (HPLC assay, non-compartmental analysis)
# Format: in vivo, human
# protocol conditions: human, plasma, po, 20 mg/day, DL1 20 mg/day oral, day 28, individual patients; read-out: Cmax
quantity: Cmax (ng/mL)
Could you give me the number in ng/mL? Just the number is fine.

Inquiry: Recorded Cmax for CC/C(=C(\c1ccc(O)cc1)c1ccc(OCCNC)cc1)c1ccccc1 [Z-endoxifen] , please?
Reply text: 201

----------
# method: Plasma pharmacokinetics of Z-endoxifen (HPLC assay, non-compartmental analysis)
# Assay type: in vivo, human
# protocol conditions: human, plasma, po, 200 mg/day, DL6 200 mg/day oral, day 28, mean; read-out: AUC(0-24h), Mean
# Procedure: This was an open-label trial of Z-endoxifen in patients with advanced solid tumors (https://clinicaltrials.gov/ identifier: NCT01273168). […] Plasma and urine concentrations of Z- and E-endoxifen were measured using a validated, post-column fluorescence derivatization HPLC assay. Non-compartmental pharmacokinetic parameters were calculated using WinNonlin version 7.0 (Pharsight Corp., Mountainview, CA, USA). […] The amount of Z-endoxifen excreted in urine was measured over a 24-hour collection period.
quantity: AUC(0-t) (ng·h/mL)
Could you give me the number in ng·h/mL? Just the number is fine.

Inquiry: Recorded AUC(0-t) for CC/C(=C(\c1ccc(O)cc1)c1ccc(OCCNC)cc1)c1ccccc1 [Z-endoxifen] , please?
Reply text: 30800
